Study Conditions: 274.2 K; Liquid
Metric Name: vapor or sublimation pressure (kPa)
Report the figure in kPa without appending any unit label.

The cases that follow already have their vapor or sublimation pressure on record.
• CCCOC(C)(C)CC [1,1-dimethylpropyl propyl ether] = 0.4002
• CCCCOC(C)(C)CC [butyl 1,1-dimethylpropyl ether] = 0.1111
• CCC(C)(C)OC [2-methoxy-2-methylbutane] = 2.693

What does the record list as vapor or sublimation pressure for CCOC(C)(C)CC [1,1-dimethylpropyl ethyl ether] ?
1.413

###

Study Conditions: 303.2 K; Liquid
Numbers after ± are expanded uncertainties.
Parameter: vapor or sublimation pressure. Scope: all listed entries.
Answer with the figure and its unit, nothing else.

• COC(C)(C)CC(C)(C)C [methyl 1,1,3,3-tetramethylbutyl ether] = 1.022 ± 0.079 kPa
• CCCOC(C)(C)CC(C)(C)C [pentane, 2-propoxy-2,4,4-trimethyl-] = 0.2956 ± 0.023 kPa

Give its vapor or sublimation pressure value. Item: CCCCOC(C)(C)CC [butyl 1,1-dimethylpropyl ether]
0.901 ± 0.07 kPa

Quick one: vapor or sublimation pressure for CCCCCOC(C)(C)CC(C)(C)C [pentane, 2-pentoxy-2,4,4-trimethyl-] ?
0.03 ± 0.0023 kPa
